assay: Selectivity index, ratio of IC50 for Cytotoxicity against CHO cells assessed as inhibition of cell viability by MTT assay to IC50 for antimalarial activity against asexual blood stage Plasmodium falciparum NF54 assessed as reduction in parasitemia incubated up to 72 hrs by [3H]hypoxanthine incorporation assay; type: toxicity, cell-based; settings: hamster, read-out: Selectivity Index
# if measured selectivity ratio at 72 h < 100: Condition met  # else: Condition not met

Example entries and their recorded answers appear below.
Structure notation | Label value
CCN(CC)Cc1cc(Nc2nc3ccccc3n2Cc2ccc(C(F)(F)F)cc2)ccc1O | Condition met
Cc1cc(CNC(C)(C)C)c(O)c(Nc2nc3cc(F)c(F)cc3[nH]2)c1 | Condition met
CCNCc1cc(C)cc(Nc2nc3cc(F)c(F)cc3n2Cc2ccc(C(F)(F)F)cc2)c1O | Condition met
CCNCc1cc(Cl)cc(Nc2nc3ccccc3n2Cc2ccc(C(F)(F)F)cc2)c1O | Condition not met
Cc1cc(CN)c(O)c(Nc2nc3ccccc3n2Cc2ccc(C(F)(F)F)cc2)c1 | Condition met
CCN(CC)Cc1cc(C)cc(Nc2nc3ccccc3[nH]2)c1O | Condition not met
CC(C)(C)NCc1cc(Cl)cc(Nc2nc3cc(F)c(F)cc3[nH]2)c1O | Condition not met
CC(C)(C)NCc1cc(Cl)cc(Nc2nc3cc(F)c(F)cc3n2Cc2ccc(C(F)(F)F)cc2)c1O | Condition not met

Input: Just wondering, is selectivity ratio at 72 h of CCNCc1cc(Cl)cc(Nc2nc3cc(F)c(F)cc3n2Cc2ccc(C(F)(F)F)cc2)c1O below 100?
Output: Condition not met

Input: Record: CC(C)(C)NCc1cc(C(C)(C)C)cc(Nc2nc3ccccc3[nH]2)c1O
Output: Condition not met

Input: Record: CCN(CC)Cc1cc(C)cc(Nc2nc3ccccc3n2Cc2ccc(C#N)cc2)c1O
Output: Condition met

Input: Record: CC(C)(C)NCc1cc(C(C)(C)C)cc(Nc2nc3cc(F)c(F)cc3[nH]2)c1O
Output: Condition not met

Input: Record: CCN(CC)Cc1cc(C)cc(Nc2nc3ccccc3n2Cc2ccc(C(F)(F)F)cc2)c1O
Output: Condition not met

Input: Record: CC(C)(C)NCc1cc(Cl)cc(Nc2nc3ccccc3n2Cc2ccc(C(F)(F)F)cc2)c1O
Output: Condition not met

Input: Record: Cc1cc(CNC(C)(C)C)c(O)c(Nc2nc3ccccc3[nH]2)c1
Output: Condition not met

Input: Record: CCN(CC)Cc1ccc(Nc2nc3ccccc3n2Cc2ccc(C(F)(F)F)cc2)cc1O
Output: Condition met

Input: Record: Cc1cc(CNC(C)(C)C)c(O)c(Nc2nc3ccccc3n2Cc2ccc(C(F)(F)F)cc2)c1
Output: Condition met

----------
system: Plasmodium falciparum; test: Antimalarial activity against asexual blood stage multi drug-resistant Plasmodium falciparum K1 infected in erythrocytes assessed as reduction in parasitemia incubated up to 72 hrs by [3H]hypoxanthine incorporation assay; format: functional, organism-based
In this section, each of the compounds is paired with its reported IC50.
Report as a plain number; the unit nM is understood.

Input: Fill in the blank: the reported IC50 of CCN(CC)Cc1cc(C)cc(Nc2nc3ccccc3[nH]2)c1O is ____.
Output: 420

Input: Record: CCN(CC)Cc1cc(Nc2nc3ccccc3n2Cc2ccc(C(F)(F)F)cc2)ccc1O
Output: 1690

Input: Record: CCN(CC)Cc1cc(C)cc(Nc2nc3ccccc3n2Cc2ccc(C(F)(F)F)cc2)c1O
Output: 60

Input: Record: Cc1cc(CNC(C)(C)C)c(O)c(Nc2nc3cc(F)c(F)cc3n2Cc2ccc(C(F)(F)F)cc2)c1
Output: 150

Input: Record: CCNCc1cc(Cl)cc(Nc2nc3ccccc3n2Cc2ccc(C(F)(F)F)cc2)c1O
Output: 110

Input: Record: CC(C)(C)NCc1cc(Cl)cc(Nc2nc3cc(F)c(F)cc3[nH]2)c1O
Output: 530

Input: Record: CCN(CC)Cc1cc(Nc2nc3ccccc3[nH]2)ccc1O
Output: 7270

Input: Record: CCNCc1cc(C)cc(Nc2nc3cc(F)c(F)cc3n2Cc2ccc(C(F)(F)F)cc2)c1O
Output: 130

These data points were gathered from ChEMBL document CHEMBL4834426.
